system: ABC-1; test: Cytotoxicity against human ABC-1 cells measured after 8 days; assay type: functional, cell-based; settings: ABC-1, 192 h
pIC50: −log10 of the molar value.
Measured pIC50, listed per entry for reference.
quantity-measured: pIC50

- C/C=C/Cn1cc(-c2ccc(C(C)(C)O)cc2OC)c2cc[nH]c2c1=O: 4.70
- C/C=C/Cn1cc(-c2ccc(C(=O)N3CCOCC3)cc2)c2cc[nH]c2c1=O: 4.70
- C/C=C/Cn1cc(-c2cc(OC)c(C(=O)N3CCOCC3)cc2OC)c2cc(C)[nH]c2c1=O: 5.70

* * *

assay: Cytotoxicity against human NCE-G 118 cells measured after 3 days; assay type: functional, cell-based; details: NCE-G 118, 72 h
quantity-measured: IC50 (µM)

* C/C=C/Cn1cc(-c2cc(OC)c(C(=O)N3CCOCC3)cc2OC)c2cc(C)[nH]c2c1=O | 5

* * *

experiment: Cytotoxicity against human KPR3351 cells measured after 8 days; format: functional, cell-based; conditions: KPR3351, 192 h
quantity-measured: IC50

* C/C=C/Cn1cc(-c2ccc(C(C)(C)O)cc2OC)c2cc[nH]c2c1=O | 20 µM
* C/C=C/Cn1cc(-c2ccc(C(=O)N3CCOCC3)cc2)c2cc[nH]c2c1=O | 20 µM

* * *

biological target: Bromodomain-containing protein 2 (Homo sapiens); test: Binding affinity to human partial length BRD2 bromodomain 1/2 isoform 1 (K71 to D455 residues) by BROMOscan assay
Sequence (P25440 whole entry, the tested form may be a part, canonical isoform): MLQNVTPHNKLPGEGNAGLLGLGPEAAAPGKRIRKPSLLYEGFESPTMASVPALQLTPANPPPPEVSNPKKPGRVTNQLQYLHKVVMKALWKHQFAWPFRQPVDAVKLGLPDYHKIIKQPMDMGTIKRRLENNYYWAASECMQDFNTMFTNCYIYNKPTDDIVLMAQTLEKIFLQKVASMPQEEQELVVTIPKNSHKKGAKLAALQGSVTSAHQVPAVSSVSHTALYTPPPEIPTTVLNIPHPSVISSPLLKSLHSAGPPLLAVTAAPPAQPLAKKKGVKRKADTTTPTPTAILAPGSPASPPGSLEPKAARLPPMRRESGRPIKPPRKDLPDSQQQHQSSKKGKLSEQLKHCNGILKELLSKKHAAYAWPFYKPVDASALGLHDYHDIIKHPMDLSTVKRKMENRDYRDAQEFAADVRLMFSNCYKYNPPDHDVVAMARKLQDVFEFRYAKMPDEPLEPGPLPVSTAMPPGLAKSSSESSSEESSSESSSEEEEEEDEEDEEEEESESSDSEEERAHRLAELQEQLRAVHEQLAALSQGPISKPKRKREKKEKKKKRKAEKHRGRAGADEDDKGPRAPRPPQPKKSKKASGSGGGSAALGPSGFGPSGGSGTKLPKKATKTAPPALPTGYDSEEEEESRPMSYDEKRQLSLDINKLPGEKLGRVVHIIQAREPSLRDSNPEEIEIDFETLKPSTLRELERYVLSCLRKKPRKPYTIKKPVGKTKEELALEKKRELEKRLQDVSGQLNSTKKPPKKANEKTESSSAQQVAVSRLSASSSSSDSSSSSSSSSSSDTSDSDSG
Measured Kd, listed per entry for reference.
quantity-measured: Kd (nM)

• C/C=C/Cn1cc(-c2cc(OC)c(C(C)(C)O)cc2OC)c2cc(C)[nH]c2c1=O = 1700
• C/C=C/Cn1cc(-c2ccc(C(C)(C)O)cc2OC)c2cc[nH]c2c1=O = 2800
• C/C=C/Cn1cc(-c2ccc(C(=O)N3CCOCC3)cc2)c2cc[nH]c2c1=O = 2300

* * *

experiment: Cytotoxicity against human PK-1 cells measured after 8 days; format: functional, cell-based; details: PK-1, 192 h
pIC50: −log10 of the molar value.
quantity-measured: pIC50

- C/C=C/Cn1cc(-c2ccc(C(=O)N3CCOCC3)cc2)c2cc[nH]c2c1=O: 4.70
- C/C=C/Cn1cc(-c2ccc(C(C)(C)O)cc2OC)c2cc[nH]c2c1=O: 4.70

* * *

Measured pIC50, listed per entry for reference.
tested on: SNU-387; assay: Cytotoxicity against human SNU-387 cells measured after 8 days; assay type: functional, cell-based; conditions: SNU-387, 192 h
pIC50: −log10 of the molar value.
quantity-measured: pIC50

* C/C=C/Cn1cc(-c2ccc(C(=O)N3CCOCC3)cc2)c2cc[nH]c2c1=O | 4.70
* C/C=C/Cn1cc(-c2ccc(C(C)(C)O)cc2OC)c2cc[nH]c2c1=O | 4.70

* * *

Measured IC50, listed per entry for reference.
system: SUM149PT; test: Cytotoxicity against human SUM149PT cells measured after 8 days; format: functional, cell-based; conditions: 192 h
quantity-measured: IC50 (µM)

• C/C=C/Cn1cc(-c2ccc(C(=O)N3CCOCC3)cc2)c2cc[nH]c2c1=O = 20
• C/C=C/Cn1cc(-c2ccc(C(C)(C)O)cc2OC)c2cc[nH]c2c1=O = 20

* * *

assay: Cytotoxicity against human 4498-16820 Mel-BR1 cells measured after 8 days; type: functional, cell-based; conditions: 4498-16820 Mel-BR1, 192 h
quantity-measured: IC50 (µM)

* C/C=C/Cn1cc(-c2ccc(C(=O)N3CCOCC3)cc2)c2cc[nH]c2c1=O | 20
* C/C=C/Cn1cc(-c2ccc(C(C)(C)O)cc2OC)c2cc[nH]c2c1=O | 15.5

* * *

Measured pIC50, listed per entry for reference.
system: GI-1; experiment: Cytotoxicity against human GI-1 cells measured after 8 days; format: functional, cell-based; conditions: GI-1, 192 h
pIC50: −log10 of the molar value.
quantity-measured: pIC50

* C/C=C/Cn1cc(-c2ccc(C(C)(C)O)cc2OC)c2cc[nH]c2c1=O | 4.70
* C/C=C/Cn1cc(-c2ccc(C(=O)N3CCOCC3)cc2)c2cc[nH]c2c1=O | 4.70

* * *

Measured Kd, listed per entry for reference.
molecular target: Protein polybromo-1 (Homo sapiens, UniProt Q86U86); assay: Binding affinity to human partial length PBRM1 bromodomain 1 (S178 to E291 residues) expressed in bacterial expression system by BROMOscan assay
Sequence (Q86U86 whole entry, the tested form may be a part): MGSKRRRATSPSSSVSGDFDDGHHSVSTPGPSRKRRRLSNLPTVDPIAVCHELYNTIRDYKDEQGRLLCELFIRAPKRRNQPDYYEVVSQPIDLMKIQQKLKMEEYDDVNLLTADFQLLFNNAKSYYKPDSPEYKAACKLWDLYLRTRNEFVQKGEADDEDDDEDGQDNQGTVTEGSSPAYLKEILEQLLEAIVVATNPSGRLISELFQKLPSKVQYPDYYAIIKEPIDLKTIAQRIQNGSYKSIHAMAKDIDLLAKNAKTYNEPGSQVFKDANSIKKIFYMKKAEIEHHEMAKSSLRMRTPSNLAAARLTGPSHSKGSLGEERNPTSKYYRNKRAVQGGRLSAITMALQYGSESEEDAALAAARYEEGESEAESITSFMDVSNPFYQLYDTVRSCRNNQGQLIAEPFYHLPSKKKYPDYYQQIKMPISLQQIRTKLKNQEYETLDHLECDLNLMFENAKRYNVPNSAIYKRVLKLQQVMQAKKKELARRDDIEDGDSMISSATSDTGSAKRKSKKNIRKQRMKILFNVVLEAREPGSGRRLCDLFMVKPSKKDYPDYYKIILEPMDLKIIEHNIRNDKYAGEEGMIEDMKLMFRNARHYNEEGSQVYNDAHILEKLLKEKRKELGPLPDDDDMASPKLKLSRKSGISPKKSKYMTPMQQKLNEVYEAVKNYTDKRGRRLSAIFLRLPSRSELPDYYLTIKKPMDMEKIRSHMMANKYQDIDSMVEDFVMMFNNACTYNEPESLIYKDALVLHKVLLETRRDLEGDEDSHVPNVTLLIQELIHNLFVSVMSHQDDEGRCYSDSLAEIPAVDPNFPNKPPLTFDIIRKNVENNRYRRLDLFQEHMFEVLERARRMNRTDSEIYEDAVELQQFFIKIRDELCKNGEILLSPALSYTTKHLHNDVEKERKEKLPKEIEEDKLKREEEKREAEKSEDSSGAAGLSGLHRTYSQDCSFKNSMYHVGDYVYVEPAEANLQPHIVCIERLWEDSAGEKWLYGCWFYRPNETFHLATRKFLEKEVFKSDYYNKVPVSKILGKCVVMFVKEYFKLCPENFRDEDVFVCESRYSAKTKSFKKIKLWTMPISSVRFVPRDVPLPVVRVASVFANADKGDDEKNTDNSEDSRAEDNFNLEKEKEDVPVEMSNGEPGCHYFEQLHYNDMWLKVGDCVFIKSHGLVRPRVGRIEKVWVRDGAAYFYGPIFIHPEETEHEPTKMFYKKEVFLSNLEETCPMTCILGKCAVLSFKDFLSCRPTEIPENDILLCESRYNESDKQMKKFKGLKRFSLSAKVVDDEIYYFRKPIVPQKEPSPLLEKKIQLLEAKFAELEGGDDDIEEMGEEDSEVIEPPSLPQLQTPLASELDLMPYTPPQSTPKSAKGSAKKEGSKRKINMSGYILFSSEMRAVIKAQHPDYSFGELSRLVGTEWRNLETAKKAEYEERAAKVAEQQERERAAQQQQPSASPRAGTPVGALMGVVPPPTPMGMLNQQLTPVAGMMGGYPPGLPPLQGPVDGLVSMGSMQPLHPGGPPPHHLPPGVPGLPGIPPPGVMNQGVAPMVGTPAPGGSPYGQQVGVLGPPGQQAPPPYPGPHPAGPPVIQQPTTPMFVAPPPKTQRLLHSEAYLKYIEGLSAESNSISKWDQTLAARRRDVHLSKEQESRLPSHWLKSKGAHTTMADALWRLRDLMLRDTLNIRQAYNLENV
quantity-measured: Kd

- C/C=C/Cn1cc(-c2ccc(C(=O)N3CCOCC3)cc2)c2cc[nH]c2c1=O: > 10 µM
- C/C=C/Cn1cc(-c2cc(OC)c(C(=O)N3CCOCC3)cc2OC)c2cc(C)[nH]c2c1=O: > 10 µM
- C/C=C/Cn1cc(-c2ccc(C(C)(C)O)cc2OC)c2cc[nH]c2c1=O: 7.6 µM
- C/C=C/Cn1cc(-c2cc(OC)c(C(C)(C)O)cc2OC)c2cc(C)[nH]c2c1=O: > 10 µM

* * *

experiment: Cytotoxicity against human OCI-M1 cells measured after 8 days; assay type: functional, cell-based; details: OCI-M1, 192 h
pIC50: −log10 of the molar value.
Measured pIC50, listed per entry for reference.
quantity-measured: pIC50

• C/C=C/Cn1cc(-c2ccc(C(=O)N3CCOCC3)cc2)c2cc[nH]c2c1=O = 4.94
• C/C=C/Cn1cc(-c2ccc(C(C)(C)O)cc2OC)c2cc[nH]c2c1=O = 4.97

* * *

system: Daudi; assay: Cytotoxicity against human Daudi cells measured after 8 days; format: functional, cell-based; settings: 192 h
quantity-measured: IC50 (µM)

• C/C=C/Cn1cc(-c2ccc(C(C)(C)O)cc2OC)c2cc[nH]c2c1=O = 3.77
• C/C=C/Cn1cc(-c2cc(OC)c(C(=O)N3CCOCC3)cc2OC)c2cc(C)[nH]c2c1=O = 2
• C/C=C/Cn1cc(-c2ccc(C(=O)N3CCOCC3)cc2)c2cc[nH]c2c1=O = 20

* * *

system: BT-20; experiment: Cytotoxicity against human BT-20 cells measured after 8 days; assay type: functional, cell-based; conditions: BT-20, 192 h
pIC50: −log10 of the molar value.
Measured pIC50, listed per entry for reference.
quantity-measured: pIC50

- C/C=C/Cn1cc(-c2ccc(C(=O)N3CCOCC3)cc2)c2cc[nH]c2c1=O: 4.70
- C/C=C/Cn1cc(-c2ccc(C(C)(C)O)cc2OC)c2cc[nH]c2c1=O: 4.70

* * *

tested on: HCC70; assay: Cytotoxicity against human HCC70 cells measured after 3 days; assay type: functional, cell-based; details: HCC70, 72 h
quantity-measured: IC50

- C/C=C/Cn1cc(-c2cc(OC)c(C(=O)N3CCOCC3)cc2OC)c2cc(C)[nH]c2c1=O: 5 µM

* * *

tested on: 23132-87; experiment: Cytotoxicity against human 23132-87 cells measured after 8 days; format: functional, cell-based; details: 23132-87, 192 h
quantity-measured: IC50 (µM)

- C/C=C/Cn1cc(-c2ccc(C(C)(C)O)cc2OC)c2cc[nH]c2c1=O: 20
- C/C=C/Cn1cc(-c2ccc(C(=O)N3CCOCC3)cc2)c2cc[nH]c2c1=O: 20

* * *

assay: Cytotoxicity against mouse LL2 cells measured after 8 days; assay type: functional, cell-based; settings: Lewis lung carcinoma, 192 h
quantity-measured: IC50

• C/C=C/Cn1cc(-c2ccc(C(C)(C)O)cc2OC)c2cc[nH]c2c1=O = 20 µM
• C/C=C/Cn1cc(-c2ccc(C(=O)N3CCOCC3)cc2)c2cc[nH]c2c1=O = 20 µM

* * *

assay: Cytotoxicity against human LUDLU-1 cells measured after 3 days; format: functional, cell-based; conditions: LUDLU-1, 72 h
quantity-measured: IC50 (µM)

• C/C=C/Cn1cc(-c2cc(OC)c(C(=O)N3CCOCC3)cc2OC)c2cc(C)[nH]c2c1=O = 5

* * *

test system: CAL-148; test: Cytotoxicity against human CAL-148 cells measured after 3 days; assay type: functional, cell-based; conditions: CAL-148, 72 h
pIC50: −log10 of the molar value.
quantity-measured: pIC50

- C/C=C/Cn1cc(-c2cc(OC)c(C(=O)N3CCOCC3)cc2OC)c2cc(C)[nH]c2c1=O: 5.30

* * *

system: MDA-MB-453; experiment: Cytotoxicity against human MDA-MB-453 cells measured after 3 days; type: functional, cell-based; conditions: MDA-MB-453, 72 h
quantity-measured: IC50 (µM)

* C/C=C/Cn1cc(-c2cc(OC)c(C(=O)N3CCOCC3)cc2OC)c2cc(C)[nH]c2c1=O | 5

* * *

assay: Cytotoxicity against human NCE-G 84 cells measured after 8 days; type: functional, cell-based; settings: NCE-G 84, 192 h
pIC50: −log10 of the molar value.
Measured pIC50, listed per entry for reference.
quantity-measured: pIC50

- C/C=C/Cn1cc(-c2ccc(C(C)(C)O)cc2OC)c2cc[nH]c2c1=O: 4.70
- C/C=C/Cn1cc(-c2ccc(C(=O)N3CCOCC3)cc2)c2cc[nH]c2c1=O: 4.70
